target: human TLR7 (hTLR7) (Homo sapiens, UniProt Q9NYK1)
Sequence (Q9NYK1 27-1049): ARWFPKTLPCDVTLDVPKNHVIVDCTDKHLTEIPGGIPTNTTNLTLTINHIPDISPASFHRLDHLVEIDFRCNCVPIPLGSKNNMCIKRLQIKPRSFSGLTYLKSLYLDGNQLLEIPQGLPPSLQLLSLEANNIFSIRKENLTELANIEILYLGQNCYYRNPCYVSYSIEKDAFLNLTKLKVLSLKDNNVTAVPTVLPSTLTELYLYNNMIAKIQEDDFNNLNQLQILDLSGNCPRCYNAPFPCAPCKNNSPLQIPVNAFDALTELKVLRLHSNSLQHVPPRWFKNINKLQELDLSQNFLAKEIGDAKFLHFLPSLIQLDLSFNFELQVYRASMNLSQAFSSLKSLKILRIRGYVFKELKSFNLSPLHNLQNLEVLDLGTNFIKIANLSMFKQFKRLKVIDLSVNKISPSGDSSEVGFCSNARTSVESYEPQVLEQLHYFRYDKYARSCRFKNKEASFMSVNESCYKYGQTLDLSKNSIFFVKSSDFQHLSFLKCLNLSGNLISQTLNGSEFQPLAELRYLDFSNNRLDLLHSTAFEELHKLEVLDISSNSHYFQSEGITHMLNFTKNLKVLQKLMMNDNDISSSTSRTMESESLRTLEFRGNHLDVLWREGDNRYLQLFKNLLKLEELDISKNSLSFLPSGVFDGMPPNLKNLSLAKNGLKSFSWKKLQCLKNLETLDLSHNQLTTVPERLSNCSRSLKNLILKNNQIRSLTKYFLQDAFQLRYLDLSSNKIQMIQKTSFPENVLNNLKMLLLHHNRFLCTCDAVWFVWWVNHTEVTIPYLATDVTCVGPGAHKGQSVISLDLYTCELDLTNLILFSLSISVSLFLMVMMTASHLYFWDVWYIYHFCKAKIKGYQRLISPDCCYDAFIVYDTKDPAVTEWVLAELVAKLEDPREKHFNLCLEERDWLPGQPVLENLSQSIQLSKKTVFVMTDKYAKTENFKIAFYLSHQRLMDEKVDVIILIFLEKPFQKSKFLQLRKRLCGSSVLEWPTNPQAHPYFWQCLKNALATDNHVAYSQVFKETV
measurementDescription: Human TLR7 agonist activity assay (HEK-Blue TLR7 SEAP reporter)
conditionParameters: HEK-Blue TLR7 cells, 18 h incubation, Quanti-Blue, OD 620 nm, some values average of multiple measurements
quantityKind: pEC50
Here pEC50 is given on a logarithmic scale as minus log10 of the concentration in mol/L.

Data request, read-out pEC50, for CCCCN(CCO)c1nc(N)nc2cn(Cc3ccc(CN[C@@H]4CCOC4)cc3OC)nc12 [Compound 53] 6.14

Data request, read-out pEC50, for CCCCN(c1nc(N)nc2cn(Cc3ccc(CN4CCCCC4)cc3OC)nc12)C(C)CO (racemic) [Compound 49] 6.41

Data request, read-out pEC50, for CCCCN(CCO)c1nc(N)nc2cn(Cc3ccc(CN4CC5(CC(OC)C5)C4)cc3OC)nc12 [Compound 6] 6.17

Data request, read-out pEC50, for CCCCN(CCO)c1nc(N)nc2cn(Cc3ccc(CNC4CCCOC4)cc3OC)nc12 (centres unmarked) [Compound 105] 5.74

Data request, read-out pEC50, for CCCCN(CCO)c1nc(N)nc2cn(Cc3ccc(CNC[C@H]4C[C@H](O)C4)cc3OC)nc12 [Compound 23] 5.72

Data request, read-out pEC50, for CCCCN(CCO)c1nc(N)nc2cn(Cc3ccc(CN4CC5(CC(O)C5)C4)cc3OC)nc12 [Compound 27] 5.71

Data request, read-out pEC50, for CCCCCNCc1ccc(Cn2cc3nc(N)nc(N(CCO)CCCC)c3n2)c2ncccc12 [Compound 57] 5.70

Data request, read-out pEC50, for CCCCN(CCO)c1nc(N)nc2cn(Cc3ccc(CNCCCCO)c4cccnc34)nc12 [Compound 59] 5.81

Data request, read-out pEC50, for CCCCN(CCO)c1nc(N)nc2cn(Cc3ccc(CN4CCCCC4)cc3OC)nc12 [Compound 2] 5.87

Data request, read-out pEC50, for CCCCN(CCO)c1nc(N)nc2cn(Cc3ccc(CNC4CCOCC4)c4c3OCCC4)nc12 [Compound 137] 5.98

Data request, read-out pEC50, for CCCCN(CCO)c1nc(N)nc2cn(Cc3cccc4c3OCCN4C(=O)CN(C)C)nc12 [Compound 90] 5.67

Data request, read-out pEC50, for CCCCN(CCO)c1nc(N)nc2cn(Cc3c(F)cc(CNCCO)cc3OC)nc12 [Compound 72] 6.13

Data request, read-out pEC50, for CCCCN(CCO)c1nc(N)nc2cn(Cc3c(F)cc(CN4CC(OC)C4)cc3OC)nc12 [Compound 84] 6.70

Data request, read-out pEC50, for CCCCN(CCO)c1nc(N)nc2cn(Cc3ccc(CN4CCCC4)cc3OC)nc12 [Compound 4] 6.16

Data request, read-out pEC50, for CCCCN(CCO)c1nc(N)nc2cn(Cc3c(F)cc(N4CCC(NC(C)C)CC4)cc3OC)nc12 [Compound 152] 6.13

Data request, read-out pEC50, for CCCCN(CCO)c1nc(N)nc2cn(Cc3ccc(CNC4(C)COC4)cc3OC)nc12 [Compound 21] 6.23

Data request, read-out pEC50, for CCCCN(CCO)c1nc(N)nc2cn(Cc3ccc(CN4CCOCC4)cc3OC)nc12 [Compound 18] 6.42

Data request, read-out pEC50, for CCCCN(CCO)c1nc(N)nc2cn(Cc3ccc(CNC4CCOC(C)C4)cc3OC)nc12 (single isomer, unassigned) [Compound 121] 5.86

Data request, read-out pEC50, for CCCCN(CCO)c1nc(N)nc2cn(Cc3ccc(CNCCCC4CC4)c4cccnc34)nc12 [Compound 63] 6.04

Data request, read-out pEC50, for CCCCN(CCO)c1nc(N)nc2cn(Cc3ccc(CNC4CCOC(C)C4)cc3OC)nc12 (single isomer, unassigned) [Compound 122] 6.25

Data request, read-out pEC50, for CCCCN(CCO)c1nc(N)nc2cn(Cc3ccc(CN4CC5(C4)CN(C(C)C)C5)cc3OC)nc12 [Compound 30] 5.85

Data request, read-out pEC50, for CCCCN(CCO)c1nc(N)nc2cn(Cc3ccc(CNCC4CCC4)cc3C(F)F)nc12 [Compound 130] 5.72

Data request, read-out pEC50, for CCCCN(CCO)c1nc(N)nc2cn(Cc3ccc(CNC4(CO)CCOCC4)cc3OC)nc12 [Compound 154] 5.67

Data request, read-out pEC50, for CCCCN(CCO)c1nc(N)nc2cn(Cc3ccc(CNCCOC)c4nccnc34)nc12 [Compound 208] 5.72

Data request, read-out pEC50, for CCCCN(CCO)c1nc(N)nc2cn(Cc3c(F)cc(CNCCOC)cc3F)nc12 [Compound 114] 5.98

Data request, read-out pEC50, for CCCCN(CCO)c1nc(N)nc2cn(Cc3ncc(CNC4CCC4)cc3OC)nc12 [Compound 182] 6.06

Data request, read-out pEC50, for CCCCCN(CCO)c1nc(N)nc2cn(Cc3ccc(CNC4CCC4)cc3OC)nc12 [Compound 44] 6.08

Data request, read-out pEC50, for CCCCN(CCO)c1nc(N)nc2cn(Cc3ccc(CNC4CC(O)C4)cc3OC)nc12 (centres unmarked) [Compound 29] 5.60

Data request, read-out pEC50, for CCCCN(CCO)c1nc(N)nc2cn(Cc3c(F)cc(CNCCO)cc3F)nc12 [Compound 113] 6.03

Data request, read-out pEC50, for CCCCN(CCO)c1nc(N)nc2cn(Cc3c(F)cc(CN[C@H]4C[C@H](O)C4)cc3F)nc12 [Compound 117] 5.93

Data request, read-out pEC50, for CCCCN(CCO)c1nc(N)nc2cn(Cc3c(F)cc(C4CCN(C)CC4)cc3OC)nc12 [Compound 47] 6.73

Data request, read-out pEC50, for CCCCN(CCO)c1nc(N)nc2cn(Cc3c(F)cc(C4=CCC(NCCOC)CC4)cc3OC)nc12 (centres unmarked) [Compound 193] 6.48
